Data provenance: patent US20070129334A1

List of IV Parameters VSS values.
Test: Pharmacokinetics in Balb/C mice (IV 10 mg/kg, PO 100 mg/kg)
Details: IV 10 mg/kg, H3PO4 salts
quantityKind: IV Parameters VSS

- COc1ccc(I)c(Sc2nc3c(N)ncnc3n2CCCNC(C)(C)C)c1 [Compound 95]: 24 L/kg
- CCC(C)NCCCn1c(Sc2cc(OC)ccc2I)nc2c(N)ncnc21 (racemic) [Compound 109]: 3.4 L/kg
- COc1ccc(I)c(Sc2nc3c(N)ncnc3n2CCCNC(C)C)c1.O=P(O)(O)O [Compound 126]: 22 L/kg
- CCC(CC)NCCCn1c(Sc2cc(OC)ccc2I)nc2c(N)ncnc21 [Compound 108]: 2.4 L/kg

* * *

Test system: HER-2 receptor (Hsp90 client) in MCF-7 cells
Assay: HER-2 degradation assay (MCF-7 cells, 16 h, phycoerythrin-labeled antibody and flow cytometry)
Format: cell-based, human
Settings: Homo sapiens, MCF7, read-out: HER-2
quantityKind: IC50 (nM)

• Nc1ncnc2c1nc(Sc1nc3cccc(Cl)c3s1)n2CCO [Compound 244] = 300
• CC(C)(C)NCCn1c(Sc2nc3cccc(Cl)c3s2)nc2c(N)ncnc21 [Compound 265] = 140
• CCCCCn1c(Sc2nc3cccc(Cl)c3s2)nc2c(N)ncnc21 [Compound 233] = 700
• CC(C)(C)CNCCn1c(Sc2nc3cccc(Cl)c3s2)nc2c(N)ncnc21 [Compound 247] = 35
• Nc1ncnc2c1nc(Sc1nc3cccc(Cl)c3s1)n2CCN1CCOCC1 [Compound 270] = 250

* * *

Assay: Mouse pharmacokinetics after oral administration at 100 mg/kg
Conditions: in vivo, po, 100 mg/kg
quantityKind: Cmax

- CCOP(=O)(CCn1c(Sc2nc3cncc(Cl)c3s2)nc2c(N)ncnc21)OCC: < 500 ng/mL

* * *

Experiment: Pharmacokinetics in Balb/C mice (IV 10 mg/kg, PO 100 mg/kg)
Conditions: IV 10 mg/kg, H3PO4 salts
quantityKind: IV Parameters T1/2

- CCC(C)NCCCn1c(Sc2cc(OC)ccc2I)nc2c(N)ncnc21 (racemic): 1.3 h
- COc1ccc(I)c(Sc2nc3c(N)ncnc3n2CCCNC(C)C)c1.O=P(O)(O)O: 4.2 h
- COc1ccc(I)c(Sc2nc3c(N)ncnc3n2CCCNC(C)(C)C)c1: 1.6 h
- CCC(CC)NCCCn1c(Sc2cc(OC)ccc2I)nc2c(N)ncnc21: 0.5 h

* * *

Assay: in vivo
Details: Balb/C, mouse, plasma, po, 100 mg/kg
quantityKind: bioavailability (%)

• CCC(C)NCCCn1c(Sc2cc(OC)ccc2I)nc2c(N)ncnc21 (racemic) = 28

* * *

Assay: in vivo
Conditions: Balb/C, mouse, plasma, po, 100 mg/kg
quantityKind: AUC (ng·h/mL)

* CCC(C)NCCCn1c(Sc2cc(OC)ccc2I)nc2c(N)ncnc21 (racemic) | 6330

* * *

Assay: Pharmacokinetics in Balb/C mice (IV 10 mg/kg, PO 100 mg/kg)
Details: PO 100 mg/kg, H3PO4 salts, plasma
quantityKind: PO Parameters Cmax (µg/mL)

• CCC(C)NCCCn1c(Sc2cc(OC)ccc2I)nc2c(N)ncnc21 (racemic) [Compound 109] = 4.8
• COc1ccc(I)c(Sc2nc3c(N)ncnc3n2CCCNC(C)(C)C)c1 [Compound 95] = 6.7
• CCC(CC)NCCCn1c(Sc2cc(OC)ccc2I)nc2c(N)ncnc21 [Compound 108] = 5.8
• COc1ccc(I)c(Sc2nc3c(N)ncnc3n2CCCNC(C)C)c1.O=P(O)(O)O [Compound 126] = 4.7
